Value source: paper PMC8305236

test system: Streptococcus pyogenes ATCC 19615; assay: broth macrodilution volatilization method (liquid and vapor phase MIC); type: cell-based; conditions: Streptococcus pyogenes, ATCC19615; liquid phase, 37 °C, 24 h; read-out: Minimal Inhibitory Concentration, Broth
Please respond with reported MIC for every item in the list.
Numbers only, in µg/mL.

For orientation, consider the following solved cases.
COMPOUND	EXPERIMENTAL SYSTEM	MIC [µg/mL]
CN(C)[C@@H]1C(O)=C(C(N)=O)C(=O)[C@@]2(O)C(O)=C3C(=O)c4c(O)cccc4[C@@](C)(O)[C@H]3C[C@@H]12 [tetracycline, reference compound]	Streptococcus pyogenes ATCC 19615	0.25
Cc1cc(O)c(C(C)C)cc1O [thymohydroquinone]	Streptococcus pyogenes ATCC 19615	32
CC1=CC(=O)C(C(C)C)=CC1=O	Streptococcus pyogenes ATCC 19615	32

Consider the record given below.
Note to self: MIC recorded for `CC(C)c1cccc(=O)c(O)c1` was 64

---

tested on: Staphylococcus aureus ATCC 29213; assay: broth macrodilution volatilization method (liquid and vapor phase MIC); format: cell-based; conditions: ATCC29213, liquid phase, 37 °C, 24 h, read-out: Minimal Inhibitory Concentration, Broth
MEASURED QUANTITY: MIC (µg/mL)
Give bare numbers, in µg/mL.

COMPOUND	MEASURED QUANTITY	NUMERIC VALUE
Cc1onc(-c2ccccc2)c1C(=O)N[C@@H]1C(=O)N2[C@@H]1SC(C)(C)[C@@H]2C(=O)O [oxacillin, reference compound]	MIC	0.5
CC(C)c1cccc(=O)c(O)c1	MIC	64
CC1=CC(=O)C(C(C)C)=CC1=O	MIC	8

Consider the record given below.
Note to self: MIC recorded for Cc1cc(O)c(C(C)C)cc1O [thymohydroquinone] was 8
